Reference source for all entries: the supplement of paper PMC7156485

Test system: TDF
runDescription: H1.0 immunofluorescence intensity relative to DMSO (% of DMSO); higher = stronger H1.0 induction, active = 120 or more
conditionSet: concentration: 10 µM; 24 h
Hi! Could you answer with just one of these? 1 for active, -1 for inactive

compound	testSystem	cat
O=C(O)C=Cc1ccc(Cn2ccnc2)cc1	TDF	-1
O=C(NC1CCNCC1)c1[nH]ncc1NC(=O)c1c(Cl)cccc1Cl	TDF	1
OCc1c[nH]c2ccccc12	TDF	-1
c1ccc2c(-c3ccncc3)c[nH]c2c1	TDF	-1
CCN(CC)CCCCN1c2ccccc2Oc2ccc(Cl)cc21.Cl	TDF	-1
CC(C)NCC(O)c1ccc(O)c(O)c1 (racemic)	TDF	-1
CCC(C)C(=O)OC1CC(C)C=C2C=CC(C)C(CCC3CC(O)CC(=O)O3)C21 (stereo not drawn)	TDF	-1
CC(C)(C)c1ccc(S(=O)(=O)Nc2ccc(-n3ccnc3)cc2)cc1	TDF	-1

Problem: Which outcome was assigned to CCCCC1CCC(c2nc(-c3ccncc3)no2)CC1 (stereo not drawn) [4-[5-(4-butylcyclohexyl)-1,2,4-oxadiazol-3-yl]pyridine] in this test?
Result: -1

Problem: Which outcome was assigned to CC1=CC(=O)C2=C(C)CCC3C(C)C(=O)OC3C12 (stereo not drawn) in this test?
Result: -1

Problem: Which outcome was assigned to O=C(O)CCCC=CCC1C(O)CC(O)C1C=CC(O)COc1cccc(Cl)c1.[Na] (stereo not drawn) in this test?
Result: -1

Problem: Which outcome was assigned to Cc1c(O)cc2c(c1C)OC(C)(CCCC(C)CCCC(C)CCCC(C)C)CC2 (stereo not drawn) in this test?
Result: -1

Problem: Which outcome was assigned to CCCCCCCCC(O)C=CC=CC=CC(O)CCCC(=O)O (stereo not drawn) in this test?
Result: -1

Problem: Which outcome was assigned to CC(N)(Cc1ccc(O)cc1)C(=O)O (racemic) in this test?
Result: -1

Problem: Which outcome was assigned to CC(C)NCC(O)c1ccc2ccccc2c1.Cl (stereo not drawn) [Pronethalol.HCl] in this test?
Result: -1

Problem: Which outcome was assigned to COC(=O)C1=C(C)NC(C)=C(C(=O)OCCN(C)Cc2ccccc2)C1c1cccc([N+](=O)[O-])c1.Cl (stereo not drawn) [Nicardipine hydrochloride] in this test?
Result: -1

Problem: Which outcome was assigned to CCOC(=O)C12CC1C(=NO)c1ccccc1O2 (stereo not drawn) in this test?
Result: -1

Problem: Which outcome was assigned to "CN(C)C(=O)COC(=O)Cc1ccc(OC(=O)c2ccc(N=C(N)N)cc2)cc1.CS(=O)(=O)O" in this test?
Result: -1

* * *

Tested on: TDF
runDescription: cell number relative to DMSO (% of DMSO); higher = more cells (less growth inhibition / toxicity)
conditionSet: concentration: 10 µM; 24 h
quantityName: cell number
# output: bare number, no unit

Look over these answered cases.
compound	testSystem	recordedMeasurement
Nc1nc(=O)c2nc(Br)n(C3OC4COP(=O)([O-])OC4C3O)c2[nH]1.[Na+] (configuration not stated) [8-Bromo-cGMP sodium]	TDF	100
CCCOc1ccc2nc(NC(=O)OC)[nH]c2c1 [Oxibendazole]	TDF	9.31
C[C@]12CCC(=O)C=C1CC[C@@H]1[C@@H]2[C@@H](O)C[C@@]2(C)[C@H]1CC[C@]2(O)C(=O)COC(=O)CCC(=O)[O-].[Na+]	TDF	99.8
COc1ccccc1N1CCN(CC(O)COc2cccc3ccccc23)CC1.Cl.Cl (configuration not stated) [Naftopidil.2HCl]	TDF	98.3
O=C1CCc2cc(OCCCCc3nnnn3C3CCCCC3)ccc2N1 [Cilostazol]	TDF	109
CC(C)CN(C)c1nc(N)c(C(=O)N=C(N)N)nc1Cl [5-(N-Methyl-N-isobutyl)amiloride]	TDF	92.3

Problem: Return reported cell number. Input compound: CCCCCCCCCCCCCCCCCC(=O)NCC(COP(=O)([O-])OCC[N+](C)(C)C)OC (racemic) [rac-2-Methoxy-3-octadecanamido-1-propylphosphocholine]
Result: 84.5

* * *

Tested on: HCC1569
runDescription: cell number relative to DMSO (% of DMSO); higher = more cells (less growth inhibition / toxicity)
conditionSet: concentration: 10 µM; 24 h
quantityName: cell number
# output: bare number, no unit

compound	cell number
O=C(O)C(O)C(O)C(=O)O.O=C(c1ccc(F)cc1)C1CCN(CCn2c(=O)[nH]c3ccccc3c2=O)CC1 [Ketanserin tartrate]	96.9

Problem: Return reported cell number. Input compound: CCC=CCC=CCC=CCC=CCCCCC(=O)O.[Na] [6(Z), 9(Z), 12(Z), 15(Z)-Octadecatetraenoic acid]
Result: 102

Problem: Return reported cell number. Input compound: CCCCCCCCCCCCCCCCn1cc[n+](Cc2ccccc2)c1C.[I-] [eEF-2 Kinase Inhibitor, NH125]
Result: 36.6

Problem: Return reported cell number. Input compound: "C[N+](C)(C)CCOC(=O)CCC(=O)OCC[N+](C)(C)C"
Result: 100

* * *

Reported cell number values follow for various molecules
Tested on: HCC1569
runDescription: cell number relative to DMSO (% of DMSO); higher = more cells (less growth inhibition / toxicity)
conditionSet: concentration: 10 µM; 24 h
# output: bare number, no unit

Look over these answered cases.
molecule	quantityName	recordedMeasurement
COC(=O)c1sccc1S(=O)(=O)Nc1ccc(Nc2ccccc2)cc1OC	cell number	99.7
COc1ccc(-c2ccc(N)[n+](CCCC(=O)O)n2)cc1.[Br-]	cell number	105
O=[NH+]C=C1C=CN(CN2C=CC(=C[NH+]=O)C=C2)C=C1.[Br-].[Br-] [1,1'-methylenebis(4-(nitrosomethyl)pyridinium) bromide]	cell number	105
CCCC1CC(C(=O)NC(C(C)O)C2OC(SC)C(O)C(O)C2O)N(C)C1 (stereo not drawn) [Lincomycin]	cell number	103
CCCCC1=NC2(CCCC2)C(=O)N1Cc1ccc(-c2ccccc2-c2nn[nH]n2)cc1	cell number	101

Problem: Return reported cell number. Input molecule: "CCCOc1cc2c(cc1\C(C)=C/C=C/C(C)=C/C(=O)O)C(C)(C)CCC2(C)C"
Result: 97.9

Problem: Return reported cell number. Input molecule: CC(N)(COP(=O)(O)O)C(=O)O (stereo not drawn) [2-methyl-O-phosphonoserine]
Result: 97.7

Problem: Return reported cell number. Input molecule: CCC(C)C(=O)OC1CC(O)C=C2C=CC(C)C(CCC3CC(O)CC(=O)O3)C21 (stereo not drawn) [Pravastatin Lactone]
Result: 101

* * *

Tested on: TDF
runDescription: H1.0 immunofluorescence intensity relative to DMSO (% of DMSO); higher = stronger H1.0 induction, active = 120 or more
conditionSet: concentration: 10 µM; 24 h
Reported H1.0 immunofluorescence intensity values follow for various molecules
# output: bare number, no unit

molecule	recordedMeasurement
O=[N+]([O-])c1ccc(S(=O)(=O)NCc2ccccc2)c([N+](=O)[O-])c1 [N-Benzyl-2,4-dinitrobenzenesulfonamide]	117
O=C1Nc2ccc(Cl)cc2C(C#CC2CC2)(C(F)(F)F)O1 (stereo unspecified)	97.6
CC1=NC(=NNc2cc(S(=O)(=O)[O-])c3cc([N+](=O)[O-])cc(S(=O)(=O)[O-])c3c2)C(COP(=O)([O-])[O-])=C(C=O)C1=O.[Na+].[Na+].[Na+].[Na+] [PPNDS tetrasodium]	91

Problem: Return reported H1.0 immunofluorescence intensity. Input molecule: CCOC(=O)C1=C(C)NC(C)=C(C(=O)OC)C1c1cccc([N+](=O)[O-])c1 (stereo unspecified)
Result: 101

Problem: Return reported H1.0 immunofluorescence intensity. Input molecule: O=C1c2ccccc2-c2n[nH]c3cccc1c23 [JNK Inhibitor II]
Result: 90.5

Problem: Return reported H1.0 immunofluorescence intensity. Input molecule: CC(C)NCC(O)COc1ccc(CC(N)=O)cc1 (stereo not drawn) [R(+)-Atenolol]
Result: 90.9

Problem: Return reported H1.0 immunofluorescence intensity. Input molecule: "CCCn1c(=O)c2[nH]c(C3CCCC3)nc2n(CCC)c1=O"
Result: 99.5

Problem: Return reported H1.0 immunofluorescence intensity. Input molecule: COC(C)(C)CCCC(C)CC=CC(C)=CC(=O)O (stereo unspecified)
Result: 98

* * *

Reported H1.0 immunofluorescence intensity values follow for various compounds
Test system: TDF
runDescription: H1.0 immunofluorescence intensity relative to DMSO (% of DMSO); higher = stronger H1.0 induction, active = 120 or more
conditionSet: concentration: 10 µM; 24 h
# output: bare number, no unit

Look over these answered cases.
compound	H1.0 immunofluorescence intensity
CC(=O)OCC1=C(C(=O)[O-])N2C(=O)C(NC(=O)Cc3cccs3)C2SC1.[Na+] (stereo not drawn) [Cephalothin sodium]	89.4
Clc1ccc(C(c2ccccc2Cl)C(Cl)Cl)cc1 (stereo not drawn) [1-(2-Chlorophenyl)-1-(4-chlorophenyl)-2,2-dichloroethane]	98.3
COC(=O)c1c(-c2cc(OC)c(OC)c(OC)c2)c2ccc(OCc3ccccn3)cc2c(=O)n1-c1ccc(N)cc1.O=S(=O)(O)O	95.1

Problem: Return reported H1.0 immunofluorescence intensity. Input compound: "CC(C)c1cccc(C(C)C)c1N1C(=O)c2ccc(O)cc2C1=O"
Result: 119

Problem: Return reported H1.0 immunofluorescence intensity. Input compound: "Cc1cnc(-c2cnc(NCCNc3ccc(C#N)cn3)nc2-c2ccc(Cl)cc2Cl)[nH]1"
Result: 114

Problem: Return reported H1.0 immunofluorescence intensity. Input compound: "CN(C)CC(=O)Nc1ccc2[nH]c(=O)c3ccccc3c2c1.Cl.O"
Result: 97.4

Problem: Return reported H1.0 immunofluorescence intensity. Input compound: "CC1=NN(c2ccccc2)C(=O)C1"
Result: 93.5

Problem: Return reported H1.0 immunofluorescence intensity. Input compound: "NC(=O)c1cccc(-c2cccc(OC(=O)NC3CCCCC3)c2)c1"
Result: 105
